target-under-test: human CGRP receptor (human CRLR / human RAMP1 heterodimer) (human, UniProt Q16602 23-461; O60894 27-148)
Sequence (Q16602 23-461 limits assumed, chain 1 of 2): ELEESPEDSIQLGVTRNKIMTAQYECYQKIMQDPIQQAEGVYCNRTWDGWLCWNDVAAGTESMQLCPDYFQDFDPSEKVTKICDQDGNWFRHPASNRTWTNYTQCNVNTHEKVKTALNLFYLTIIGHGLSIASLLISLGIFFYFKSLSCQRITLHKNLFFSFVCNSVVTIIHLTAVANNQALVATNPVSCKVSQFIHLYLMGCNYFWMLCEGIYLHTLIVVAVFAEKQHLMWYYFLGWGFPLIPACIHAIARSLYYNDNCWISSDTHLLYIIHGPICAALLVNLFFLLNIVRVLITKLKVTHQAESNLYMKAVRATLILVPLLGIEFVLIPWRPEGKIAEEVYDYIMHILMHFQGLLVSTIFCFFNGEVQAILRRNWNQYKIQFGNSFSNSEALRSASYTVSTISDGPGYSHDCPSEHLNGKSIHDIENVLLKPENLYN
Sequence (O60894 27-148 limits assumed, chain 2 of 2): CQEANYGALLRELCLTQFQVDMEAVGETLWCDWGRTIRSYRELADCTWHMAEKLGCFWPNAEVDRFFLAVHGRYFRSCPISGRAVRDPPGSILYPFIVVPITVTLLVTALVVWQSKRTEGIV
procedure-text: cell-based or functional assay
attribute-measured: Average IC50 (nM), cell-based cAMP assay, SK-N-MC cells, 3 nM human α-CGRP
Give the value in nM but do not write nM after it.

Which Average IC50 (nM), cell-based cAMP assay, SK-N-MC cells, 3 nM human α-CGRP value is on record for anti-CGRP receptor variant antibody 06, bivalent monoclonal antibody (antibody, human IgG1, lambda, N297G, V domains shown) VH: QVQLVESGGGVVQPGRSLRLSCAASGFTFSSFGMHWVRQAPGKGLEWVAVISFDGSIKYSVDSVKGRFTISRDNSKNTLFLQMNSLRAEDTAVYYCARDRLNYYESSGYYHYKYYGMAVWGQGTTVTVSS VL: QSVLTQPPSVSAAPGQKVTISCSGSYSNIGRKSVSWYQQLPGTAPKLLIYDNNKRPSGIPDRFSGSKSGTSATLGITGLQTGDEADYYCGTWDSRLSAVVFGGGTKLTVLG ?
0.15

Cited source for all entries: patent US20220363770A1
